# settings: in n-propanol, 284.15 K
reported-property: solubility (mole fraction)
Respond with the number and no other words.

Need solubility (mole fraction) of "NC(=O)c1ccccc1N" , thanks. 0.027

* * *

# settings: in n-butanol, 313.15 K
reported-property: solubility (mole fraction)

Need solubility (mole fraction) of "NC(=O)c1ccccc1N" , thanks. 0.0579

* * *

# settings: in n-octanol, 289.15 K
reported-property: solubility (mole fraction)

Need solubility (mole fraction) of "NC(=O)c1ccccc1N" , thanks. 0.0206

* * *

# settings: in n-octanol, 279.15 K
reported-property: solubility (mole fraction)
Respond with the number and no other words.

Need solubility (mole fraction) of "NC(=O)c1ccccc1N" , thanks. 0.0159

* * *

# settings: in n-hexanol, 293.25 K
reported-property: solubility (mole fraction)
Respond with the number and no other words.

Need solubility (mole fraction) of "NC(=O)c1ccccc1N" , thanks. 0.0246

* * *

# settings: in n-propanol, 289.15 K
reported-property: solubility (mole fraction)
Respond with the number and no other words.

Need solubility (mole fraction) of "NC(=O)c1ccccc1N" , thanks. 0.0314

* * *

# settings: in ethyl acetate, 273.15 K
reported-property: solubility (mole fraction)
Respond with the number and no other words.

Need solubility (mole fraction) of "NC(=O)c1ccccc1N" , thanks. 0.053

* * *

# settings: in acetone, 273.15 K
reported-property: solubility (mole fraction)
Respond with the number and no other words.

Need solubility (mole fraction) of "NC(=O)c1ccccc1N" , thanks. 0.164

* * *

# settings: in THF, 289.15 K
reported-property: solubility (mole fraction)

Need solubility (mole fraction) of "NC(=O)c1ccccc1N" , thanks. 0.255

* * *

# settings: in acetonitrile, 309.15 K
reported-property: solubility (mole fraction)
Respond with the number and no other words.

Need solubility (mole fraction) of "NC(=O)c1ccccc1N" , thanks. 0.0871

* * *

# settings: in isopentanol, 298.95 K
reported-property: solubility (mole fraction)
Respond with the number and no other words.

Need solubility (mole fraction) of "NC(=O)c1ccccc1N" , thanks. 0.0273

* * *

# settings: in acetonitrile, 313.75 K
reported-property: solubility (mole fraction)
Respond with the number and no other words.

Need solubility (mole fraction) of "NC(=O)c1ccccc1N" , thanks. 0.111

* * *

# settings: in n-propanol, 317.15 K
reported-property: solubility (mole fraction)
Respond with the number and no other words.

Need solubility (mole fraction) of "NC(=O)c1ccccc1N" , thanks. 0.0842

* * *

# settings: in methyl acetate, 318.15 K
reported-property: solubility (mole fraction)
Respond with the number and no other words.

Need solubility (mole fraction) of "NC(=O)c1ccccc1N" , thanks. 0.186

* * *

# settings: in isopentanol, 318.15 K
reported-property: solubility (mole fraction)
Respond with the number and no other words.

Need solubility (mole fraction) of "NC(=O)c1ccccc1N" , thanks. 0.055

* * *

# settings: in n-pentanol, 293.35 K
reported-property: solubility (mole fraction)
Respond with the number and no other words.

Need solubility (mole fraction) of "NC(=O)c1ccccc1N" , thanks. 0.0276

* * *

# settings: in n-propanol, 324.15 K
reported-property: solubility (mole fraction)
Respond with the number and no other words.

Need solubility (mole fraction) of "NC(=O)c1ccccc1N" , thanks. 0.105

* * *

# settings: in isopropanol, 279.15 K
reported-property: solubility (mole fraction)

Need solubility (mole fraction) of "NC(=O)c1ccccc1N" , thanks. 0.0182
